measurement_target: T1, ヒト組織因子経路インヒビター (human TFPI) (human, UniProt P10646 29-304, limits assumed)
T1 construct: Coated on Maxisorp plates (ELISA) or amine-coupled to a CM5 chip (Biacore); also called ヒトTFPI; hTFPI
T1 sequence (looked up): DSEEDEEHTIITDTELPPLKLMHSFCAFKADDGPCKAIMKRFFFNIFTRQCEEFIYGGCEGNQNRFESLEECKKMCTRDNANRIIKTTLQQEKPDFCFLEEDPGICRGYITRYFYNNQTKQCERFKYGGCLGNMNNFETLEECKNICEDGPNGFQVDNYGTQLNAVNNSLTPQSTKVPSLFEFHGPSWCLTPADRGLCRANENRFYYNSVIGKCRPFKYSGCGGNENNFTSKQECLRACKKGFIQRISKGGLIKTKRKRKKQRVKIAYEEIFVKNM
assay_notes: ELISA, Fab in bacterial lysate on human TFPI-coated plate

- binder: "TP-2B8 (Fab, V domains shown, Human Fab (HuCal Gold), made in E. coli TG1) VH: QVQLVQSGAEVKKPGASVKVSCKASGYTFTGNSMHWVRQAPGQGLEWMGTIFPYDGTTKYAQKFQGRVTMTRDTSISTAYMELSSLRSEDTAVYYCARGVHSYFDYWGQGTLVTVSS VL: DIELTQPPSVSVAPGQTARISCSGDNLRGYYASWYQQKPGQAPVLVIYEDNNRPSGIPERFSGSNSGNTATLTISGTQAEDEADYYCQSWDSPYVHVFGGGTKLTVLG"
  binding result: "binds"
- binder: "TP-2A8 (Fab, V domains shown, Human Fab (HuCal Gold), made in E. coli TG1; also called Fab-2A8; TP-2A8-Fab) VH: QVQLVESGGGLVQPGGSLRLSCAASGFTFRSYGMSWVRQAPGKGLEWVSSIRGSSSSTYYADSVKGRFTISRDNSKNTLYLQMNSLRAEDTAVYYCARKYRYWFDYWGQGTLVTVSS VL: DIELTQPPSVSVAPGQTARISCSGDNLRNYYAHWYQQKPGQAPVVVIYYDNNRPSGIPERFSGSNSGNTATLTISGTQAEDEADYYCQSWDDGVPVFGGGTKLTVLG"
  binding result: "binds"
- binder: "TP-3F2 (Fab, V domains shown, Human Fab (HuCal Gold), made in E. coli TG1) VH: QVQLVESGGGLVQPGGSLRLSCAASGFTFSSYSMHWVRQAPGKGLEWVSGISYSSSFTYYADSVKGRFTISRDNSKNTLYLQMNSLRAEDTAVYYCARALGGGVDYWGQGTLVTVSS VL: DIELTQPPSVSVAPGQTARISCSGDNLPSKSVYWYQQKPGQAPVLVIYGDNNRPSGIPERFSGSNSGNTATLTISGTQAEDEADYYCQSWTSRPMVVFGGGTKLTVLG"
  binding result: "binds"
